Just for reference, patent US20190038784A1 is where these values come from.

- Tgt: extracted human tau (aggregated tau, PHF) (Homo sapiens, UniProt P10636)
- Construct: Tau Ki; other: mean of at least two measurements with SD; other: radiolabel displacement of [3H]-T808, 10 nM
- Sequence (P10636 623-695 limits assumed): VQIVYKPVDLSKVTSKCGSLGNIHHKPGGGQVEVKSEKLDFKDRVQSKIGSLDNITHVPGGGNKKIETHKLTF
- Test Description: Competitive radioligand binding assay with [3H]-T808 on aggregated tau preps from human AD brain
- Measurement Setup: mean of at least two measurements with SD; calculated from IC50, KD PHF 6.275 nM, 10 nM RL
pKi: −log10 of the molar value.
Property Name: pKi

>>> print(df.to_string())
              chemical_structure                                       tgt  property_name  reading
0    Cc1cnccc1Nc1ccc2nc(F)ccc2n1  extracted human tau (aggregated tau, PHF) (Homo sapiens, UniProt P10636)            pKi     7.87
1  Cc1cc(Nc2ccc3nc(F)ccc3n2)ccn1  extracted human tau (aggregated tau, PHF) (Homo sapiens, UniProt P10636)            pKi     8.10
2     Fc1ccc2nc(Nc3ccncc3)ccc2n1  extracted human tau (aggregated tau, PHF) (Homo sapiens, UniProt P10636)            pKi     7.95
